- experiment.notes: qHTS Validation assay for Inhibitors of Plasmodium falciparum Dd2 growth in vitro; note: nearly all actives have a fitted effect of over 70% in size
- condition.info: P. falciparum Dd2 in RBCs, SYBR Green growth, 72 h; series mostly up to 28.7 µM
Hit rate of the full screen: of about 4,100 compounds, about 1,600 (39%) were called active. About 25% were inconclusive and are not listed. Calls come from the whole dose curve; as a rule, active = well fitted inhibition curve with a large enough effect; inconclusive = small, poorly fitted or top-dose-only effect; inactive = no such curve, though single readings can be large or run the other way. The list shows a part of the results.
Labels: T = active, F = inactive

chemical.string	qualitative.label
CN(C)c1cc[n+](Cc2ccccc2)cc1	T
c1ccc(-c2noc(-c3cncnc3NC3CCCCCC3)n2)cc1	F
N#Cc1c(N2CCN(c3ccc(F)cc3)CC2)nc(N)c2c(N)nc3c(c12)CC(=O)N3C1CC1	T
CN1C(=O)C2(CCN(C(=O)c3ccn(C(C)(C)C)c3)CC2)c2ccccc21	F
CCN1C(=O)C2(CCN(S(=O)(=O)c3ccc(Cl)cc3C)CC2)c2ccccc21	T

---

- experiment.notes: qHTS Validation assay for Inhibitors of Plasmodium falciparum Dd2 growth in vitro; note: nearly all actives have a fitted effect of over 70% in size; note: potency is the fitted concentration of half-maximal effect
- condition.info: P. falciparum Dd2 in RBCs, SYBR Green growth, 72 h; series mostly up to 28.7 µM
Out of some 4,100 compounds screened, about 1,600 (39%) were called active. Not shown: some 25% with an inconclusive outcome. Some of the results follow.
measurement.label: Potency

compound	measurement.label	measured.value
Cc1ccsc1C(=O)N1CC(Oc2ccc(-c3nc(-c4ccccc4)no3)cc2)C1	Potency	inactive
COc1ccc(N2CCN(C(c3cc4ccc(C)cc4[nH]c3=O)c3nnnn3C3CCCC3)CC2)cc1 (stereo not given)	Potency	6.68 µM (active)
CCCN(CC1CCOC1)C(=O)c1ccc(F)c(Cl)c1 (stereo not given)	Potency	inactive
COc1cc2c(cc1OC)CN(c1ccc3ccccc3n1)CC2	Potency	inactive
COc1ccccc1N1CCN(C(c2cc3ccc(C)cc3[nH]c2=O)c2nnnn2C2CCCC2)CC1 (stereo not given)	Potency	7.5 µM (active)
Cc1nnc2c(N3CCN(c4ccccc4)CC3)nc3ccc(C(=O)c4ccccc4)cc3n12	Potency	0.842 µM (active)
Cn1cccc1C(=O)N1CC[C@H](NC(=O)Nc2ccc(F)cc2F)[C@H]1C(=O)N[C@H](Cc1ccccc1)C(N)=O	Potency	inactive
Cc1nc(C)c(C(=O)NCC2CCCCC(=O)N2)s1 (stereo not given)	Potency	inactive
CN(CC1CCN(CCc2ccc(Cl)cc2)CC1)C(=O)c1ccccc1C#N	Potency	inactive
COCc1nncn1C1CCN(C(=O)c2ccc(C)c(C)c2)CC1	Potency	inactive

---

- experiment.notes: qHTS Validation assay for Inhibitors of Plasmodium falciparum Dd2 growth in vitro; note: nearly all actives have a fitted effect of over 70% in size
- condition.info: P. falciparum Dd2 in RBCs, SYBR Green growth, 72 h; series mostly up to 28.7 µM
The whole screen tested about 4,100 compounds, of which about 1,600 (39%) were called active. Inconclusive results (about 25%) are left out. Calls come from the whole dose curve; as a rule, active = well fitted inhibition curve with a large enough effect; inconclusive = small, poorly fitted or top-dose-only effect; inactive = no such curve, though single readings can be large or run the other way. The list shows a part of the results.
Outcomes: active, inactive

molecule	qualitative.label
CN(C)CCNC(=O)c1cc(-c2ccccc2F)cc2c1OCCN2Cc1cccnc1	active
CC(C)C(=O)NC(c1ccc([N+](=O)[O-])cc1)c1c(O)ccc2ccccc12 (configuration not stated)	active
COc1cc(C#Cc2c(-c3cncn3C)n(C)c3ccc(-c4ccc(OC)c(OC)c4)cc23)cc(OC)c1	active
COc1cc(C)cc(CN2CCC(Cc3ccccc3)CC2)c1O	active
COc1cccc(OCCn2cc(C(=O)c3ccco3)c3ccccc32)c1	inactive
CCn1ccc2sc(C)c(C(=O)N3CCC(Cc4ccccc4)CC3)c2c1=O	inactive
CC(C)(C)c1ccc(OCCn2ccccc2=O)cc1	inactive
COc1ccc(-c2cc(-c3cccc(NC(C)=O)c3)cn3cncc23)cn1	active
CCS(=O)(=O)N1CC(F)(F)C[C@H]1c1nc(CCOC)no1	inactive
COCCNC(=O)[C@H]1C[C@H](Oc2ccccc2)CN1C(=O)c1ccccc1OC	inactive
CCCCC(=O)NC(c1cccc([N+](=O)[O-])c1)c1c(OC(C)=O)ccc2ccccc12 (configuration not stated)	active
Cc1nn2c(c1-c1ccccc1-c1ccccc1)N(CC1CC1)CCC2	active
C/C=C/c1cc(CN2CCN(c3ccccc3)CC2)c(O)c(OC)c1	active
COc1ccc(C(=O)N2CCC(Cc3nc(-c4ccccc4)n[nH]3)CC2)cc1OC	inactive
Nc1nc(N)c2c(ccc3nccc32)[nH]1	inactive
O=C(Cc1ccccc1)N1CCCC2(CC(c3ccccn3)=NO2)C1 (configuration not stated)	inactive
COc1cncc(-c2cc(C(=O)NCc3cccnc3)c3c(c2)N(C)CCO3)c1	inactive
Cc1noc(C2CC3(CCN(C(=O)c4cccn4C)CC3)CN2C)n1 (configuration not stated)	inactive
COc1ccc(-c2cnc([C@@H]3COCCN3Cc3ccccc3O)[nH]2)cc1	active
Cc1cccc(CSc2nn3c(=O)c(C)nnc3s2)c1	inactive
CNC(=O)c1cc(-c2ccc([S+](C)(=O)[O-])cc2)cc2c1OCCN2Cc1cccnc1	inactive
CCn1ncc(CN2CCCC23CCN(c2cc(C)nc4ccccc24)CC3)c1C	active
Cc1n[nH]c(=S)n(/N=C/c2cccs2)c1=O	inactive
c1csc(-c2ccnc(N[C@H]3CO[C@H]4[C@@H]3OC[C@@H]4NCC3CCCCC3)n2)c1	active
COc1ccccc1N(CC(=O)Nc1cc(C)cc(C)c1)S(C)(=O)=O	inactive
O=C(c1ccco1)c1cn(CCOc2ccc(F)cc2)c2ccccc12	active
Cc1nn2c(c1-c1ccccc1[S+](C)(=O)[O-])N(Cc1ccc(C(=O)O)s1)CCC2	active
Cc1nn2c(c1-c1ccccc1-c1ccccc1)N(CCC(C)C)CCC2	active
COc1ccc(NS(=O)(=O)c2cc(NC(=O)/C=C/c3cc(OC)c(OC)c(OC)c3)ccc2N2CCCCC2)cc1	active
COc1ccc(CN2CC(Oc3ccccc3C(=O)NCc3ccccc3)C2)c(OC)c1	active
CCN1Cc2nc(OC)c(CNC(=O)C(C)n3cc(C)cn3)cc2C1=O (configuration not stated)	inactive
O=C(NCc1ccc(F)cc1)c1c2c(nc3ccccc13)C(=O)N(C1CCCCC1)C2	inactive
O=C(NNc1nc(-c2ccc(Br)cc2)cs1)c1ccco1	active
CN1CCOc2c(C(=O)NCc3cccnc3)cc(-c3cccc4[nH]ccc34)cc21	active
O=C(Cn1c(=O)n(Cc2ccc(C(=O)NCc3ccc4c(c3)OCO4)cc2)c(=O)c2ccccc21)Nc1cccc(Cl)c1	active
Cc1nc2ccc(C(=O)NCc3cc4n(n3)CCN(C(=O)N(C)C)C4)cc2o1	inactive
COc1nc(N(C)S(=O)(=O)c2ccc(C)cc2)nc(C)c1Br	inactive
COc1ccc(OCCn2cc(C(=O)c3ccco3)c3ccccc32)cc1	active
Cc1c(CN2CC(Oc3ccccc3C(=O)NCc3ccccc3)C2)cnn1C	active
COc1ccc(-n2c(-c3ccc(Br)cc3)c[n+]3c2CCc2ccccc2-3)cc1	active
Cc1nn2c(c1-c1ccccc1C(C)C)N(CCC(C)C)CCC2	active
CC(C)(C)OC(=O)N1CCC(c2c(C(=O)NCCN3CCc4ccccc4C3)cnn2-c2ccc(F)cc2F)CC1	active
